Biological target: EPHA8 (Homo sapiens)
Sequence (P29322 28-1005): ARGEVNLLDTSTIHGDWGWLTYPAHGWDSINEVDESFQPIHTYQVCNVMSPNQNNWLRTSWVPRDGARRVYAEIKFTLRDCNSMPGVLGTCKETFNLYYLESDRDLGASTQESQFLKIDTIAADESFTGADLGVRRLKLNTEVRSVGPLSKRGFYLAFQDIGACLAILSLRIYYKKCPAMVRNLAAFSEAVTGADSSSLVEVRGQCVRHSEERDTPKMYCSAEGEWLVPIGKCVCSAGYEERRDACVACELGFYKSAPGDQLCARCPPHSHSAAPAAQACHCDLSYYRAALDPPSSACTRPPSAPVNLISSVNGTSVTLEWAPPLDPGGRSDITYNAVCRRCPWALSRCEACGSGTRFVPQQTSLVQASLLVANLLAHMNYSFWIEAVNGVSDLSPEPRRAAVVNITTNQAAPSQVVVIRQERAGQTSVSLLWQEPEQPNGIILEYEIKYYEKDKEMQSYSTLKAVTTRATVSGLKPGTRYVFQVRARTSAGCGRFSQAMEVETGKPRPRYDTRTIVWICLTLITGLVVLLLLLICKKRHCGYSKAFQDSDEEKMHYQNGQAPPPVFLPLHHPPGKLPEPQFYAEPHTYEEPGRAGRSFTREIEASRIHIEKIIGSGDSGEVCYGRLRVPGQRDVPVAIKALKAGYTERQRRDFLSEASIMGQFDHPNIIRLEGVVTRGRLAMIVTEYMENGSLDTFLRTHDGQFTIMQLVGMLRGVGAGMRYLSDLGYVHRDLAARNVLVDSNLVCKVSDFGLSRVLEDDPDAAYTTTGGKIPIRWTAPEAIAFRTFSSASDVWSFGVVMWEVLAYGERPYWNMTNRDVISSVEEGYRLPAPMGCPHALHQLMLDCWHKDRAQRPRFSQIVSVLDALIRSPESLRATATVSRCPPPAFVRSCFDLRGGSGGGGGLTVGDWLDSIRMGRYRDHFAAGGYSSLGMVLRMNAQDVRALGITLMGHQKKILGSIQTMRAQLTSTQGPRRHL
Test: SelectScreen kinase specificity survey
Conditions: estimated, abridged dose response curve, read-out: Kinase inhibitory activity EC50
Assign EC50 to each entry below.
Give bare numbers, in µM.

CN(C)CCCNc1ccc2ncn3c4ccc5[nH]ncc5c4c(=O)c1c23 | 4.15

// fetch EC50 given entry CCN(CC)CCNc1ccc2ncn3c4ccc(O)cc4c(=O)c1c23 [Symadex, reference compound]
3.35

----------
Biological target: DYRK3 (Homo sapiens)
Sequence (O43781 1-588): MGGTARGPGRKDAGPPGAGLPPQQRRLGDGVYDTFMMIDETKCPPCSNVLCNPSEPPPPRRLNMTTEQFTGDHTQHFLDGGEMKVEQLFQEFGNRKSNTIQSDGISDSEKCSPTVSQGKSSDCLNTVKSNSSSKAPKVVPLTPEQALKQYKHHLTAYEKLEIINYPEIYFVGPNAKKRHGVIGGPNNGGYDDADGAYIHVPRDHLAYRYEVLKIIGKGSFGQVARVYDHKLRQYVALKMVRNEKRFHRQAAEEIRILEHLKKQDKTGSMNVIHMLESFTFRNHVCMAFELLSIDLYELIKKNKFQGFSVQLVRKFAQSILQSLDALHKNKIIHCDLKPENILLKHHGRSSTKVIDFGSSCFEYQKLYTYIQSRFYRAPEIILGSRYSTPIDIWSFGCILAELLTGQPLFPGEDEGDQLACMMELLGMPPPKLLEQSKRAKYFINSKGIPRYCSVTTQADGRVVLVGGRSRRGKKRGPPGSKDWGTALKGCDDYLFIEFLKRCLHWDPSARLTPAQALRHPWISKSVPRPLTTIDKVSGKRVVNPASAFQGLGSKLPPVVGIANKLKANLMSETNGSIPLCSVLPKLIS
Experiment: SelectScreen kinase specificity survey
Conditions: estimated, abridged dose response curve, read-out: Kinase inhibitory activity EC50
Observable: pEC50
One number for each entry, as −log10 of the molar value.

CCN(CC)CCNc1ccc2ncn3c4ccc(O)cc4c(=O)c1c23 [Symadex, reference compound] | 6.21

// fetch pEC50 given entry CN(C)CCCNc1ccc2ncn3c4ccc5[nH]ncc5c4c(=O)c1c23 [Compound (IV)]
6.42

----------
Assign pEC50 to each entry below.
target: AKT2 (PKB beta) (Homo sapiens, UniProt P31751); test: SelectScreen kinase specificity survey; details: estimated, abridged dose response curve, read-out: Kinase inhibitory activity EC50
Sequence (P31751 whole entry): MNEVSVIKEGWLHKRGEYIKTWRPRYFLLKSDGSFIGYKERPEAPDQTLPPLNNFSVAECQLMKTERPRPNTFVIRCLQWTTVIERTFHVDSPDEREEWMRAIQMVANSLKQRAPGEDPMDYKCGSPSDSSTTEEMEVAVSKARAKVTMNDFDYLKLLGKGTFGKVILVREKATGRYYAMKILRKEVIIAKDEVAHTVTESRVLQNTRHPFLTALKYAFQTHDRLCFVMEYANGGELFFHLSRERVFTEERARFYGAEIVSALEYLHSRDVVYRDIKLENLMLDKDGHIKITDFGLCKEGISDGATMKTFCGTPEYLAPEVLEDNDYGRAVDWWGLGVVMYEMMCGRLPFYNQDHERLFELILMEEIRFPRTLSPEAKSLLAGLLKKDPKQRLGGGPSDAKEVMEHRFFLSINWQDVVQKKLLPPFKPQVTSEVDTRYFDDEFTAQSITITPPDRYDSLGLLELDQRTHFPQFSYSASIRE
pEC50: −log10 of the molar value.

CN(C)CCCNc1ccc2ncn3c4ccc5[nH]ncc5c4c(=O)c1c23 | < 5.30

Then there is this compound:
Report value: pEC50, system: AKT2 (PKB beta) (Homo sapiens, UniProt P31751), compound: CCN(CC)CCNc1ccc2ncn3c4ccc(O)cc4c(=O)c1c23 [Symadex, reference compound]
< 5.30

----------
target: EPHA1 (Homo sapiens); experiment: SelectScreen kinase specificity survey; details: estimated, abridged dose response curve, read-out: Kinase inhibitory activity EC50
Sequence (P21709 26-976): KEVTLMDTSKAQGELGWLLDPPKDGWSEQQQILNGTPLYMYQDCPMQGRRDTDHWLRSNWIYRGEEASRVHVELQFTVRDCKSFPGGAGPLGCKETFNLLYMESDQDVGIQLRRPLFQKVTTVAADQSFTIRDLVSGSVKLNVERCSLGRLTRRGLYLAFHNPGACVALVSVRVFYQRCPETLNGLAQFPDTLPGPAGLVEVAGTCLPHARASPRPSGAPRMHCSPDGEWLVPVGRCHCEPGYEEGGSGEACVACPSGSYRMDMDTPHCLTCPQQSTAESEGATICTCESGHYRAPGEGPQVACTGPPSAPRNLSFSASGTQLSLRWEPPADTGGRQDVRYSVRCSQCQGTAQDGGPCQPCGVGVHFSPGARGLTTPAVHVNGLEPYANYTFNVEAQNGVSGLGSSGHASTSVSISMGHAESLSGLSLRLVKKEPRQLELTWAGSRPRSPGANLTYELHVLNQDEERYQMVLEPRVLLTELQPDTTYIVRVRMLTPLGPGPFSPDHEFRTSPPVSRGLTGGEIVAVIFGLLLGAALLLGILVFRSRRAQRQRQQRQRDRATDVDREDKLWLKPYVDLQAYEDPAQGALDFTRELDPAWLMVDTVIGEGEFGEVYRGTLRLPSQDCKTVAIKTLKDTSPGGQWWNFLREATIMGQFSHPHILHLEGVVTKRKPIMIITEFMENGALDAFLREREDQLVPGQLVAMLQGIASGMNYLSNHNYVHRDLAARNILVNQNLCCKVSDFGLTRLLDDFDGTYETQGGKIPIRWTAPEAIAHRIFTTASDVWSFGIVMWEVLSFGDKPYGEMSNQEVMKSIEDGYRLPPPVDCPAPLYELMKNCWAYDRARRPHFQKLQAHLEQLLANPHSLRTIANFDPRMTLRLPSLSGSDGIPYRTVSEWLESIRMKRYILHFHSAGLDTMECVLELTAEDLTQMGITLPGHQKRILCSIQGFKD
pEC50: −log10 of the molar value.
Assign pEC50 to each entry below.

CCN(CC)CCNc1ccc2ncn3c4ccc(O)cc4c(=O)c1c23 [Symadex, reference compound] | < 5.30

Then there is this compound:
Report value: pEC50, system: EPHA1 (Homo sapiens), compound: `CN(C)CCCNc1ccc2ncn3c4ccc5[nH]ncc5c4c(=O)c1c23`
< 5.30

----------
Target: PRKG2 (PKG2) (Homo sapiens, UniProt Q13237)
Sequence (Q13237 1-762): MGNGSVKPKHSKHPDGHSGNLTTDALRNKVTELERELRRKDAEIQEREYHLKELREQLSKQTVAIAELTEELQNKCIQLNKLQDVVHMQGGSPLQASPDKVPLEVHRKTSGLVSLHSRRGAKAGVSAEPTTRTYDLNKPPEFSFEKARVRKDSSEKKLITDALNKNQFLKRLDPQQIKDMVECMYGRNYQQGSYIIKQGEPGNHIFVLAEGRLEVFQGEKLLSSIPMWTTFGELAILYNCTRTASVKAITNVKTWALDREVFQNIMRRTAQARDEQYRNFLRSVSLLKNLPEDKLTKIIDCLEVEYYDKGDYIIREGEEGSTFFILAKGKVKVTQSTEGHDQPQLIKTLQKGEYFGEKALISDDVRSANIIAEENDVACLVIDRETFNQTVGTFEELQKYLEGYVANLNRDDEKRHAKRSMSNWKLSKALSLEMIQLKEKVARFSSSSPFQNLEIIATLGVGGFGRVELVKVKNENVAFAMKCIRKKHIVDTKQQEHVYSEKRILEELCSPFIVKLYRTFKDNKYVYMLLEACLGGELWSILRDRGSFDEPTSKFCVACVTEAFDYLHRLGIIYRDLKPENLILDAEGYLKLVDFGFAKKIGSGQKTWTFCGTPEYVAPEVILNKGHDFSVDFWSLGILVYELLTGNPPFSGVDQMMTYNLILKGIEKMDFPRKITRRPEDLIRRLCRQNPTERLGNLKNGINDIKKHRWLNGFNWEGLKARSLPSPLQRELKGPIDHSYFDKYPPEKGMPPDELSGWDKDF
Assay: SelectScreen kinase specificity survey
Details: estimated, abridged dose response curve, read-out: Kinase inhibitory activity EC50
Assign EC50 to each entry below.
Numbers only, in µM.

CN(C)CCCNc1ccc2ncn3c4ccc5[nH]ncc5c4c(=O)c1c23 [Compound (IV)] | 1.91

Then there is this compound:
// fetch EC50 given entry CCN(CC)CCNc1ccc2ncn3c4ccc(O)cc4c(=O)c1c23 [Symadex, reference compound]
2.85

----------
target: MAPK14 (p38 alpha) (Homo sapiens, UniProt Q16539); assay: SelectScreen kinase specificity survey; settings: estimated, abridged dose response curve, read-out: Kinase inhibitory activity EC50
Sequence (Q16539 whole entry): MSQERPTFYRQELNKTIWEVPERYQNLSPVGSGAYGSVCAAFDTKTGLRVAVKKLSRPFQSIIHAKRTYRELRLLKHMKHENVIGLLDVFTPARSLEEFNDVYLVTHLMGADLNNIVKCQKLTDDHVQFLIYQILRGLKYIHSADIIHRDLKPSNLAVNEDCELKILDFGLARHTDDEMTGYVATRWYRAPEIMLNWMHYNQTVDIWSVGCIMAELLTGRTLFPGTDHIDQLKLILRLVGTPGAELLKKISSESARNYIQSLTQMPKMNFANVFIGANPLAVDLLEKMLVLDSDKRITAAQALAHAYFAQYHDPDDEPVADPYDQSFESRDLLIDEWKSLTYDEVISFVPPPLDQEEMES
Assign EC50 to each entry below.
Give bare numbers, in µM.

CN(C)CCCNc1ccc2ncn3c4ccc5[nH]ncc5c4c(=O)c1c23 | 3.79

Then there is this molecule:
Report value: EC50, system: MAPK14 (p38 alpha) (Homo sapiens, UniProt Q16539), molecule: CCN(CC)CCNc1ccc2ncn3c4ccc(O)cc4c(=O)c1c23 [Symadex, reference compound]
2.97

----------
target: CDK2/cyclin A (Homo sapiens, UniProt P24941); test: SelectScreen kinase specificity survey; conditions: estimated, abridged dose response curve, read-out: Kinase inhibitory activity EC50
Observable: pEC50
Answers are plain numbers, as −log10 of the molar value.

// fetch pEC50 given entry `CN(C)CCCNc1ccc2ncn3c4ccc5[nH]ncc5c4c(=O)c1c23`
6.09

----------
molecular target: JAK2 JH1 JH2 (Homo sapiens, UniProt O60674); construct: JAK2 JH1 JH2; assay: SelectScreen kinase specificity survey; conditions: estimated, abridged dose response curve, read-out: Kinase inhibitory activity EC50
Sequence (O60674 532-1132 limits assumed): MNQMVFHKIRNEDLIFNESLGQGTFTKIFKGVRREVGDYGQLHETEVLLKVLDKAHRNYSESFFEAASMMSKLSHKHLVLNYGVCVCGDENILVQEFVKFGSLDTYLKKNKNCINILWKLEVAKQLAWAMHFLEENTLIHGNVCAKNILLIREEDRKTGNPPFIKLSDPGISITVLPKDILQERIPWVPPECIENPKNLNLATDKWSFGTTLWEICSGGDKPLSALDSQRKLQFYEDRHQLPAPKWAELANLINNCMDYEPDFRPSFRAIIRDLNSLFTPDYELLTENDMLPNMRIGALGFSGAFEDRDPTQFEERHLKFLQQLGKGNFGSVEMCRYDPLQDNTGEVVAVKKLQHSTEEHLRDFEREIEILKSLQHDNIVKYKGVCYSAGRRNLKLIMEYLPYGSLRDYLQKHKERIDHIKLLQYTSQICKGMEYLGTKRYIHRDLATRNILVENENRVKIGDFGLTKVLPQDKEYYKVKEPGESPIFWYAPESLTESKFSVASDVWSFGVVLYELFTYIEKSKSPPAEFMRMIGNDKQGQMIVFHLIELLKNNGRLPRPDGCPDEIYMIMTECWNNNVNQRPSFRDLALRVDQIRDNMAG
pEC50: −log10 of the molar value.
Assign pEC50 to each entry below.

CCN(CC)CCNc1ccc2ncn3c4ccc(O)cc4c(=O)c1c23 [Symadex, reference compound] | < 5.30

Then there is this compound:
// fetch pEC50 given entry `CN(C)CCCNc1ccc2ncn3c4ccc5[nH]ncc5c4c(=O)c1c23`
< 5.30

----------
Target: AKT1 (PKB alpha) (Homo sapiens, UniProt P31749)
Sequence (P31749 whole entry): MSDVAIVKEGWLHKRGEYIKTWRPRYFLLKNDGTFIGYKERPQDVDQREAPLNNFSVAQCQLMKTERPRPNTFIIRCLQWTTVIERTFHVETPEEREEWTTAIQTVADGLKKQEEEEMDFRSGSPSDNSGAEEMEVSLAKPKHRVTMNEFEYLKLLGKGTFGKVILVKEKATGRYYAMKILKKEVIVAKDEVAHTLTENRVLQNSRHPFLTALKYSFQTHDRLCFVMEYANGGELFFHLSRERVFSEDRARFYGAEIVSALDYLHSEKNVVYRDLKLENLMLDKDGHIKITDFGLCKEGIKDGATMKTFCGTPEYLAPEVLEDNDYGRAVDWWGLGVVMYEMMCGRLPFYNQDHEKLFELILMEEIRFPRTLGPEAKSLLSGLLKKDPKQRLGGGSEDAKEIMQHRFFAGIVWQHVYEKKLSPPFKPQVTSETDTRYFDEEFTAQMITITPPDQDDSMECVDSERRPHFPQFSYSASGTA
Assay: SelectScreen kinase specificity survey
Settings: estimated, abridged dose response curve, read-out: Kinase inhibitory activity EC50
Description: Testing of the compounds described in this invention was carried out using the SelectScreen™ platform from Invitrogen, Inc. (Carlsbad. Calif., USA) and the details of its performance are readily viewed via the web by linking to: http://www.invitrogen.com/downloads/SelectScrn_Brochure.pdf. Briefly, the approach is based on treating each specific kinase with a unique substrate and optical reporter system in the presence of ATP at 100 micromolar. […]
pEC50: −log10 of the molar value.
Observable: pEC50

CCN(CC)CCNc1ccc2ncn3c4ccc(O)cc4c(=O)c1c23 [Symadex, reference compound] | < 5.30

Then there is this molecule:
// fetch pEC50 given entry CN(C)CCCNc1ccc2ncn3c4ccc5[nH]ncc5c4c(=O)c1c23 [Compound (IV)]
< 5.30
